- Test system: cholesterol oxidase derived from Brevibacterium sp.
- Protocol Notes: Effect of organic solvents on enzyme activity (Brevibacterium sp.)
- Type: biochemical
- Applied Conditions: organic solvent 50% by volume of reaction solution; pH 7, 30° C.; no solvent = 1
Measured Endpoint: Relative activity, Brevibacterium sp.
Form field (numeric): enter value without unit.

CCCc1ccccc1 [Propylbenzene] : 0.8

Output reported Relative activity, Brevibacterium sp. of the compound Cc1ccc(C)cc1 [Paraxylene] on cholesterol oxidase derived from Brevibacterium sp..
0.7

Output reported Relative activity, Brevibacterium sp. of the compound c1ccc(Cc2ccccc2)cc1 [Diphenylmethane] on cholesterol oxidase derived from Brevibacterium sp..
0.8

Output reported Relative activity, Brevibacterium sp. of the compound c1ccccc1 [Benzene] on cholesterol oxidase derived from Brevibacterium sp..
0.5

Output reported Relative activity, Brevibacterium sp. of the compound Cc1ccccc1 [Toluene] on cholesterol oxidase derived from Brevibacterium sp..
0.5

Output reported Relative activity, Brevibacterium sp. of the compound C1CCCCCCC1 [Cyclooctane] on cholesterol oxidase derived from Brevibacterium sp..
0.2

----------
- Test system: cholesterol oxidase derived from ST-200 strain
- Protocol Notes: Substrate specificity of enzyme
- Type: biochemical, Pseudomonas sp. ST-200
- Applied Conditions: various substrates; 30° C., pH 7; enzyme activity with cholesterol set to be 100
So basically, if Relative activity (%) comes in under 20% it's 1, and if it's 20% or more it's 0.

Solved cases (5 shown):
CC[C@H](CC[C@@H](C)[C@H]1CC[C@H]2[C@@H]3CC=C4C[C@@H](O)CC[C@]4(C)[C@H]3CC[C@]12C)C(C)C : 0
CC(C)CCC[C@@H](C)[C@H]1CC[C@H]2[C@@H]3CC[C@H]4C[C@@H](O)CC[C@]4(C)[C@H]3CC[C@]12C : 0
C[C@]12CC[C@H](O)C[C@@H]1CC[C@@H]1[C@@H]2CC[C@]2(C)C(=O)CC[C@@H]12 [Epiandrosterone, 5α-androstan-3β-ol-17-one] : 1
CC(C)CCC[C@@H](C)[C@H]1CC[C@H]2[C@@H]3CC=C4C[C@@H](O)CC[C@]4(C)[C@H]3CC[C@]12C : 0
C[C@]12CC[C@H](O)CC1=CC[C@@H]1[C@@H]2CC[C@]2(C)C(=O)CC[C@@H]12 [Dehyoepiandrosterone, 3β-Hydroxyandrost-5-en-17-one] : 1

Dear colleague, could you confirm whether Relative activity (%) of CC(C)CCC[C@@H](C)[C@H]1CC[C@H]2[C@@H]3CC=C4C[C@H](O)CC[C@]4(C)[C@H]3CC[C@]12C [Epicholesterol, Cholest-5-en-3α-ol] falls below 20%? Thanks.
1

Dear colleague, could you confirm whether Relative activity (%) of CC(=O)[C@H]1CC[C@H]2[C@@H]3CC=C4C[C@@H](O)CC[C@]4(C)[C@H]3CC[C@]12C [Pregnenolone, 3β-Hydroxypregn-5-en-20-one] falls below 20%? Thanks.
0

----------
Listed next: entries and their corresponding Relative activity, Pseudomonas sp..
- Test system: cholesterol oxidase derived from Pseudomonas sp.
- Protocol Notes: Effect of organic solvents on enzyme activity (Pseudomonas sp.)
- Format: biochemical
- Applied Conditions: organic solvent 50% by volume of reaction solution; pH 7, 30° C.; no solvent = 1
Form field (numeric): enter value without unit.

Please review the following examples before continuing.
ClC(Cl)Cl [Chloroform] : 0.1
CCCc1ccccc1 : 1.3
Cc1ccc(C)cc1 : 1.5

Supply Relative activity, Pseudomonas sp. value. Item: `c1ccccc1`
1.3

Supply Relative activity, Pseudomonas sp. value. Item: `c1ccc(Cc2ccccc2)cc1`
1.5

Supply Relative activity, Pseudomonas sp. value. Item: `C1CCCCCCC1`
0.8

Supply Relative activity, Pseudomonas sp. value. Item: `Cc1ccccc1`
1.4

----------
- System: cholesterol oxidase derived from ST-200 strain
- Protocol Notes: Effect of organic solvents on enzyme activity (ST-200)
- Type: biochemical, Pseudomonas sp. ST-200
- Applied Conditions: organic solvent 50% by volume of reaction solution; pH 7, 30° C.; no solvent = 1
true (1) means recorded Relative activity, ST-200 is 3 or above; false (0) means it is below 3.

Solved cases (5 shown):
c1ccc(Cc2ccccc2)cc1 [Diphenylmethane] : true (1)
C1CCCCCCC1 [Cyclooctane] : false (0)
Cc1ccccc1 [Toluene] : true (1)
ClC(Cl)Cl [Chloroform] : false (0)
CCCc1ccccc1 [Propylbenzene] : true (1)

Would you say Cc1ccc(C)cc1 [Paraxylene] shows Relative activity, ST-200 at minimum 3?
true (1)

----------
- Test system: cholesterol oxidase derived from Streptomyces sp.
- Protocol Notes: Effect of organic solvents on enzyme activity (Streptomyces sp.)
- Format: biochemical
- Applied Conditions: organic solvent 50% by volume of reaction solution; pH 7, 30° C.; no solvent = 1
Measured Endpoint: Relative activity, Streptomyces sp.
Form field (numeric): enter value without unit.

Please review the following examples before continuing.
C1CCCCCCC1 : 0.4
c1ccc(Cc2ccccc2)cc1 : 1.0
Cc1ccccc1 : 1.2
c1ccccc1 : 0.9
CCCc1ccccc1 : 1.1

Output reported Relative activity, Streptomyces sp. of the molecule ClC(Cl)Cl [Chloroform] on cholesterol oxidase derived from Streptomyces sp..
0.1

Output reported Relative activity, Streptomyces sp. of the molecule `Cc1ccc(C)cc1` on cholesterol oxidase derived from Streptomyces sp..
1.1

----------
- System: cholesterol oxidase derived from ST-200 strain
- Protocol Notes: Effect of metal ions and the like on enzyme activity
- Assay type: biochemical, Pseudomonas sp. ST-200
- Applied Conditions: pH 7
Measured Endpoint: Relative activity (%)
Output spec: scalar in %, unitless text.

Please review the following examples before continuing.
[Ca+2].[Cl-].[Cl-] [Calcium chloride] : 106
[Cl-].[Cl-].[Zn+2] [Zinc chloride] : 92
[Cl-].[Cl-].[Mg+2] [Magnesium chloride] : 102
[Cl][Ni][Cl] [Nickel chloride] : 90
c1ccc(-c2ccccn2)nc1 [α,α-dipyridyl, reference compound] : 98

Supply Relative activity (%) value. Item: Oc1cccc2cccnc12 [8-hydroxyquinoline, reference compound]
85

The reported numbers originate from patent US20030153051A1.
